assay: yeast display, Sf9 membrane polyspecificity reagent, FACS + sequencing; frameworks hold sequencing errors
readout: polyreactivity (PSR sort gate)

Some sequences with recorded polyreactivity (PSR sort gate):
{"macromolecule sequence": "QVQLVESGGGLVQAGGSLRLSCAASGSIFHWNAMGWYRQAPGKERELVAGITTSGGTTYYADSVKGRFTISRDNAKNTVYLQMNSLKPEDTAVYYCAARIIRWRPRWPSYGKYDYWGQGTQVTVSS", "polyreactivity (PSR sort gate)": "low polyreactivity"}
{"macromolecule sequence": "QVQLVESGGGLVQAGGSLRLSCAASGSIFIVYAMGWYRQAPGKERELVAAISYRGGSTYADSVKGRFTISRDNAKNTVYLQMNSLKPEDTAVYYCAADDLSYVGYYYGYVDDDYWGQGTQVTVSS", "polyreactivity (PSR sort gate)": "high polyreactivity"}
{"macromolecule sequence": "QFQLVESGGGLVQAGGSLRLSCAASGGTFYSNAMGCYRQAPGKERDLVATITGGGRTYYADSVKGRFTISRDNAKNTVYLQMNSLKPEDNAVYYCAVRGYHQYKYGYWGQGTQVNVSS", "polyreactivity (PSR sort gate)": "high polyreactivity"}
{"macromolecule sequence": "QVQLVESGGCLVQAGGSLRLICAASGNTFYVYAMGWYRQAPGKERELVAAITWSGGSTNYADSVKGRYTISRDNAKNTVYLQMNSLKPEDSAVYYCKADYWTFSPYDYWGQGTQVTVSS", "polyreactivity (PSR sort gate)": "low polyreactivity"}
{"macromolecule sequence": "QVQLVESVGGLVQAGGSLRLSCAASGSIFTWYAMGWYRQAPRKERELVAAITRGGSTYADSVKGRFTISRDNAKNTVYLQMNSLKPEDTAVYYCNAVYGVYDFNYWGQGTQVTVSS", "polyreactivity (PSR sort gate)": "low polyreactivity"}

# evaluate next
Enquiry: Look up and state reported polyreactivity (PSR sort gate) for QVQLVESGGGLVQAGGSLRLSCAASGFTFDENAMGWYRQAPGINYSGASTYYADSVKGRFTISRDNATNTVYLQMNSLKPEDTAVYYCAAEVVAQMNYWGQGTQVTVSS
Return: low polyreactivity

Data origin: the nanobody polyreactivity screen of Harvey et al. (2022)
